Provenance of the data: patent US20080021030A1

Molecular target: hPPAR alpha (Homo sapiens)
Construct: expressed in transfected cells; host or cells: CV-1 cells
Sequence (Q07869 239-466 limits assumed): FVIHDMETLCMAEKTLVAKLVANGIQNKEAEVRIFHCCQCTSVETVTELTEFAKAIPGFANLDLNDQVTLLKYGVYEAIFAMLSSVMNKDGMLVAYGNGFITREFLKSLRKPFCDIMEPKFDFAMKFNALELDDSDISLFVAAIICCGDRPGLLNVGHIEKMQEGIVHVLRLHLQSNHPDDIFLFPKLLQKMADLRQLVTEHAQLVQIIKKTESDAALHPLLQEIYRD
Assay: Transient transfection (transactivation) assay in CV-1 cells, GAL4-PPAR LBD chimera, SPAP reporter
Format: cell-based
Settings: read-out: EC50 μM HPPARα
Measure: log10(EC50) (log10 of the value in µM)
Scale type: logarithmic (base 10). Underlying EC50 unit: µM.

Example entries and their recorded answers appear below.
Cc1cc(CNC(=O)c2cc(-c3ccc(C(C)(C)C)cc3)[nH]n2)ccc1OC(C)(C)C(=O)O
-0.42
C=CCOc1ccc(-c2cc(C(=O)NCc3ccc(OC(C)(C)C(=O)O)c(C)c3)n(C)n2)cc1
-0.05
COCCn1nc(-c2ccc(C(C)(C)C)cc2)cc1C(=O)NCc1ccc(OC(C)(C)C(=O)O)c(C)c1
-1.18
Cc1cc(CNC(=O)c2cc(-c3ccc(N4CCCCC4)cc3)nn2C)ccc1OC(C)(C)C(=O)O
-0.08
CCCCc1ccc(-c2cc(C(=O)NCc3cc(C)c(OC(C)(C)C(=O)O)c(C)c3)nn2C)cc1
-2.22

Hey, can you go through the list below and give me log10(EC50) for every item?
1. COCCn1nc(C(=O)NCc2ccc(OC(C)(C)C(=O)O)c(C)c2)cc1-c1ccc(C(C)(C)C)cc1
2. Cc1cc(CNC(=O)c2cc(-c3ccc(C(C)(C)C)cc3)n(C)n2)cc(C)c1OC(C)(C)C(=O)O
3. CCCCc1ccc(-c2cc(C(=O)NCc3cc(C)c(OC(C)(C)C(=O)O)c(Cl)c3)nn2C)cc1
4. CCn1nc(C(=O)NCc2ccc(OC(C)(C)C(=O)O)c(C)c2)cc1-c1ccc(C(C)(C)C)cc1
5. CCn1nc(-c2ccc(C(C)(C)C)cc2)cc1C(=O)NCc1ccc(OC(C)(C)C(=O)O)c(OC)c1
6. Cc1cc(CNC(=O)c2cc(-c3cccc(N4CCCC4)c3)n(C)n2)ccc1OC(C)(C)C(=O)O
7. COc1cc(CNC(=O)c2cc(-c3ccc(C(C)C)cc3)nn2C)ccc1OC(C)(C)C(=O)O
8. Cc1cc(CNC(=O)c2cc(-c3cccc(N4CCCC4)c3)nn2C)ccc1OC(C)(C)C(=O)O

A)
1: -1.38; 2: -2.70; 3: -2.00; 4: -2.05; 5: -0.52; 6: -0.30; 7: 0.46; 8: -1.17
